- Tested on: COLO205 colon adenocarcinoma cells (B-Raf V600E mutation)
- Procedure Details: COLO205 cell growth inhibition (ATPlite)
- Assay type: cell-based
- Condition Notes: Homo sapiens, COLO 205, 72 h, 3 days
Quantity Name: IC50

Known IC50 results, listed for orientation:
>  <Molecule>
O=C(c1c(F)ccc(NS(=O)(=O)N2CCCC2)c1F)c1c[nH]c2ncc(-c3cnc(N4CCNCC4)nc3)cc12

>  <IC50>
< 1 µM

$$$$
>  <Molecule>
CCN(C)S(=O)(=O)Nc1cccc(C(=O)c2c[nH]c3ncc(-c4cnc(C(C)C)nc4)cc23)c1F

>  <IC50>
< 1 µM

$$$$
>  <Molecule>
CN(C)S(=O)(=O)Nc1ccc(F)c(C(=O)c2c[nH]c3ncc(-c4ccc(C5(C#N)CC5)cc4)cc23)c1F

>  <IC50>
< 1 µM

$$$$

Tell us which IC50 value is on record for CC(C)(O)c1nc(-c2cnc3[nH]cc(C(=O)c4c(F)ccc(NS(=O)(=O)N5CCCC5)c4F)c3c2)cs1
< 1 µM

Tell us which IC50 value is on record for Nc1ncc(-c2cnc3[nH]cc(C(=O)c4c(F)ccc(NS(=O)(=O)N5CCCC5)c4F)c3c2)cn1
< 1 µM

Tell us which IC50 value is on record for CCN(C)S(=O)(=O)Nc1ccc(F)c(C(=O)c2c[nH]c3ncc(-c4ccc(C5(C#N)CC5)cc4)cc23)c1F
< 1 µM

Tell us which IC50 value is on record for O=C(c1c(F)ccc(NS(=O)(=O)N2CCCC2)c1F)c1c[nH]c2ncc(-c3cc(N4CCOCC4)ncn3)cc12
< 1 µM

Tell us which IC50 value is on record for CNS(=O)(=O)Nc1ccc(F)c(C(=O)c2c[nH]c3ncc(-c4cnc(C5CC5)nc4)cc23)c1F
> 1 µM
